Tested on: CPG-tel26 (DNA, G4) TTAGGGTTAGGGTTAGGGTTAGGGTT
measurement-description: G4-CPG affinity chromatography
applied-conditions: 50 mM KCl; 10% DMSO, 10% ethanol; 60 μM compound; error ±2%
observation-type: Bound Ligand (%)

Guide cases for Bound Ligand (%), answers given:
Cc1c(O)cc2c3c1CCc1cc(O[C@H]4O[C@H](CO)[C@@H](O)[C@H](O)[C@H]4O)c(C)c(c1-3)CC2 ... 9%
C=CC12C(=O)C(C)(O)C(CC1c1cc(C)cc3c1-c1ccc(O)c(C)c1CC3)C1=C2c2ccc(OC)c(C)c2CC1 (stereo not shown) ... 0%
C=Cc1c(C)c(O[C@H]2O[C@H](CO)[C@@H](O)[C@H](O)[C@H]2O)cc2c1-c1ccc(O)c(C)c1CC2 ... 0%
C=CC12C3=C(CCc4c3ccc(O)c4C)C(CC1c1cc(C)cc3c1-c1ccc(O)c(C)c1CC3)C(C)(O)C2O (stereo not shown) ... 19%
C=Cc1c(C)c(O[C@@H]2O[C@H](CO)[C@@H](O)[C@H](O)[C@H]2O)cc2c1-c1ccc(O)c(C)c1CC2 ... 0%

Prompt: Need Bound Ligand (%) of C=CC12C(=O)C(C)(O)C3CC1c1c4c(cc(C)c1C31CCc3c(ccc(O)c3C)C21O)CCc1c-4ccc(O)c1C (stereo not shown) , thanks.
Response: 48%

Prompt: Need Bound Ligand (%) of C=Cc1c(C)c(O)cc2c1-c1ccc(O)c(C)c1CC2 , thanks.
Response: 2%
